Test system: HLA-A*24
protocol.notes: MHC binding assay, UV-ligand exchange with beta2m ELISA, HLA-A*24
Parameters: species or system human
condition.parameters: binding to HLA-A*24 ranged by peptide exchange yield (UV-ligand exchange, beta2m ELISA)
test.readout: Peptide exchange

111 (VYVQILQKL; listed as Homo sapiens) [compound 111]; +++ (50%-75% = +++)
370 (RFIGIPNQF; listed as Homo sapiens) [compound 370]; +++ (50%-75% = +++)
350 (KYGNFIDKL; listed as Homo sapiens) [compound 350]; +++ (50%-75% = +++)
233 (QYLTAAALHNL; listed as Homo sapiens) [compound 233]; +++ (50%-75% = +++)
289 (FFHEGQYVF; listed as Homo sapiens) [compound 289]; ++++ (>=75% = ++++)

Ask: Look at this substance and give its reported Peptide exchange. 252 (AFGQETNVPLNNF; listed as Homo sapiens) [compound 252]
Reply: ++++ (>=75% = ++++)

Ask: Quick one: Peptide exchange of 160 (RYGDGGSSF; listed as Homo sapiens) [compound 160] ?
Reply: +++ (50%-75% = +++)

Ask: Look up Peptide exchange for this substance: 140 (RYLINSYDF; listed as Homo sapiens) [compound 140]
Reply: ++++ (>=75% = ++++)

Ask: What value of Peptide exchange has been reported for the following substance? 305 (NYENKQYLF; listed as Homo sapiens) [compound 305]
Reply: ++++ (>=75% = ++++)

Ask: # input substance: 108 (PYLVVIHTL; listed as Homo sapiens) [compound 108] ; wanted: its Peptide exchange
Reply: +++ (50%-75% = +++)

Ask: Requested field: Peptide exchange. Item: 200 (VFIHHLPQF; listed as Homo sapiens) [compound 200]
Reply: +++ (50%-75% = +++)

Ask: # query: Peptide exchange of entry 120 (GYIEHFSLW; listed as Homo sapiens) [compound 120]
Reply: ++++ (>=75% = ++++)

* * *

Test system: HLA-A*24
protocol.notes: MHC binding assay, UV-ligand exchange with beta2m ELISA, HLA-A*24
Parameters: species or system human
condition.parameters: binding to HLA-A*24 ranged by peptide exchange yield (UV-ligand exchange, beta2m ELISA)
test.readout: Peptide exchange

170 (QYPFHVPLL; listed as Homo sapiens) [compound 170]; ++++ (>=75% = ++++)
281 (NYSPGLVSLIL; listed as Homo sapiens) [compound 281]; +++ (50%-75% = +++)
256 (VFGKSAYLF; listed as Homo sapiens) [compound 256]; +++ (50%-75% = +++)
356 (NYMPGQLTI; listed as Homo sapiens) [compound 356]; ++++ (>=75% = ++++)
372 (VYVIEPHSMEF; listed as Homo sapiens) [compound 372]; +++ (50%-75% = +++)

Ask: Give the measured Peptide exchange of 139 (IFGIFPNQF; listed as Homo sapiens) [compound 139] .
Reply: +++ (50%-75% = +++)

Ask: Given 142 (VYVDDIYVI; listed as Homo sapiens) [compound 142] , state its recorded Peptide exchange.
Reply: +++ (50%-75% = +++)

Ask: Any idea what Peptide exchange was measured for 285 (VYVGDALLHAI; listed as Homo sapiens) [compound 285] ?
Reply: +++ (50%-75% = +++)
